- System under test: Human Glucocorticoid Receptor (Homo sapiens, UniProt P04150)
- Construct: endogenous in cells
- Sequence (P04150 1-777): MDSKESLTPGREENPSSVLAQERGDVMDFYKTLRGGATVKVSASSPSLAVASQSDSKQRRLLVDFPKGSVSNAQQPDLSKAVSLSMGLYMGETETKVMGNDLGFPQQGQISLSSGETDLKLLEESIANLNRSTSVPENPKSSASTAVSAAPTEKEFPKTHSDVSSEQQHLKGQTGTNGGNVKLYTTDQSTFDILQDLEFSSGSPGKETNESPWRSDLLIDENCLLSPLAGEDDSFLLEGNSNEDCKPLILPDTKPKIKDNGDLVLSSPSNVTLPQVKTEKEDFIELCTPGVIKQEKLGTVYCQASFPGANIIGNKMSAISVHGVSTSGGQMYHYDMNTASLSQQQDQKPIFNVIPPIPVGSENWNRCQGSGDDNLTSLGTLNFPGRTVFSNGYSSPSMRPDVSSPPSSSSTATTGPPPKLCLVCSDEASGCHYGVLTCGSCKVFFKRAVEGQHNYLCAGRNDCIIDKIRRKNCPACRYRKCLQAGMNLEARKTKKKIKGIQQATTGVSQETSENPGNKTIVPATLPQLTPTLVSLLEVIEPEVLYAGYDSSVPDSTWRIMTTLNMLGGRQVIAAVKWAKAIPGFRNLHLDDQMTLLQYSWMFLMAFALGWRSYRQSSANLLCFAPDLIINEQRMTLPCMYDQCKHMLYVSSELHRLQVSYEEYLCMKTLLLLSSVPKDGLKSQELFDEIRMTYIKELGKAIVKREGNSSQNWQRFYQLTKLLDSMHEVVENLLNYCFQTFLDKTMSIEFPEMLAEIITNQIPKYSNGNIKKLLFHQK
- Protocol summary: Competition Binding in IM-9 Human Glucocorticoid Receptor (GR IM-9)
- Test conditions: cytosol from IM-9 cell line, 1.5 nM [3H]-Dexamethasone, 4° C. for 6 hours
The following molecules are listed with their measured IC50 values.

Sample answers from the record:
>>> print(df.to_string())
                                   molecule                         system_under_test          result
0  O=C(OCc1ccc(F)cc1)C1=C(C2CC2)NC(C2CC2)=C(C(=O)OCc2ccc(F)cc2)C1c1csc2ncccc12  Human Glucocorticoid Receptor (Homo sapiens, UniProt P04150)  100 to 1000 nM
1  CC(=O)C1=C(C)NC(C)=C(C(=O)OCc2ccncc2F)C1c1csc2ncccc12 (stereo not shown)  Human Glucocorticoid Receptor (Homo sapiens, UniProt P04150)       ≥ 1000 nM
2  CC(=O)C1=C(C)NC(C2CC2)=C(C(=O)OC2CCCC2)C1c1csc2ncccc12 (stereo not shown)  Human Glucocorticoid Receptor (Homo sapiens, UniProt P04150)        < 100 nM

Next:
input: # query: IC50 of entry CC(=O)C1=C(C)NC(C)=C(C(=O)N(C)Cc2ccccc2)C1c1csc2ncccc12 (stereo not shown)
output: ≥ 1000 nM

====

- System under test: human androgen receptor (Homo sapiens, UniProt P10275, T878A)
- Construct: endogenously expressed human androgen receptor using the LnCap prostate cancer cell line; endogenous in cells
- Sequence (P10275 whole entry T878A): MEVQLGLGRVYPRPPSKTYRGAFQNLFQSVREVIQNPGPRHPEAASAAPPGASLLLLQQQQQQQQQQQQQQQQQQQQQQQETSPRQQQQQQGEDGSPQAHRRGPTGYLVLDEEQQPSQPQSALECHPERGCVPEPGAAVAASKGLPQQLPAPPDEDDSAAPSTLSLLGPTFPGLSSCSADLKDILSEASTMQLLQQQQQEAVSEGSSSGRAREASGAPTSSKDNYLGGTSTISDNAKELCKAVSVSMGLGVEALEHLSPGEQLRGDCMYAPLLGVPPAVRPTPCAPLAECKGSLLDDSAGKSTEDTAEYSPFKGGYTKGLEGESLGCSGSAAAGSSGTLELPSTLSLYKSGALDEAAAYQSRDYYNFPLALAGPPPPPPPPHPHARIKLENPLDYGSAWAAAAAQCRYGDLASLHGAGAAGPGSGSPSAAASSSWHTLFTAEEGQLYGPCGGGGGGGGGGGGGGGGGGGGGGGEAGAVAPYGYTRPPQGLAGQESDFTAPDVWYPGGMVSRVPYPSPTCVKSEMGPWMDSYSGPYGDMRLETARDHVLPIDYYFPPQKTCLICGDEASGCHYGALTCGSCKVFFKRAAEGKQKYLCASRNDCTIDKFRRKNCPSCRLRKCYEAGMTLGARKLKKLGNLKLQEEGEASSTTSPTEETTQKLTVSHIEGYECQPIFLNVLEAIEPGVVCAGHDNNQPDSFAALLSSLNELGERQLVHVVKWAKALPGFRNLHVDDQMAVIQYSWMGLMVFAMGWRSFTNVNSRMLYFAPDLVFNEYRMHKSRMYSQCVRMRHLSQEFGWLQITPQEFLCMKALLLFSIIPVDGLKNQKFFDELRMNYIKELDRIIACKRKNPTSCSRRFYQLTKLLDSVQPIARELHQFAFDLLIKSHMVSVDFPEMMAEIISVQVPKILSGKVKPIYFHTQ
- Protocol summary: Human Androgen Receptor Binding (radioligand binding, LnCap prostate cancer cell line)
- Test conditions: LnCap cells, displacement of [^3H]-methyltrienolone, 2 hours at 37° C.; read-out: AR LNCaP
pIC50: −log10 of the molar value.
Measured metric: pIC50

input: // lookup pIC50 for COC(=O)C1=C(C)NC(N)=C(C(=O)OCC(C)(C)C)C1c1csc2c(C#N)cccc12 (stereo not shown)
output: 6.00 to 7.00

input: Similarly, CC(=O)C1=C(C)NC(C)=C(C(=O)OCc2ccncc2)C1c1csc2ccc(F)cc12 (stereo not shown) ?
output: 6.00 to 7.00

input: Same for CC(=O)C1=C(C)NC(C)=C(C(=O)OCC2CCCCC2)C1c1csc2ncccc12 (stereo not shown)
output: ≤ 6.00

input: Next molecule up: COC(=O)C1=C(C)NC(N)=C(C(=O)OC(C)C)C1c1csc2c(C#N)cccc12 (stereo not shown)
output: 6.00 to 7.00

input: Entry CC(=O)C1=C(C)NC(C2CC2)=C(C(=O)OCc2ccncc2)C1c1csc2c(Br)cccc12 (stereo not shown) please
output: > 7.00

input: Further, for CC(=O)C1=C(C)NC(C)=C(C(=O)OCc2ccncc2)C1c1csc2c(Br)cccc12 (stereo not shown) ?
output: 6.00 to 7.00

input: Repeat for the following molecule: CC(=O)C1=C(C)NC(C)=C(C(=O)OCc2cccc(Br)c2)C1c1csc2ncccc12 (stereo not shown)
output: 6.00 to 7.00

input: Proceed to COC(=O)C1=C(C)NC(CO)=C(C(=O)OC)C1c1csc2c(C#N)cccc12 (stereo not shown)
output: 6.00 to 7.00

input: Then what about the molecule CC(=O)C1=C(C)NC(C)=C(C(=O)OCc2ccccc2)C1c1csc2ccccc12 (stereo not shown) ?
output: ≤ 6.00
